Entry source: IntAct's records for PubMed 29039417

B1: Protein PTHB1 (Homo sapiens), Q3SYG4 (parent)
chain: MSLFKARDWWSTILGDKEEFDQGCLCLANVDNSGNGQDKIIVGSFMGYLRIFSPHPAKTGDGAQAEDLLLEVDLRDPVLQVEVGKFVSGTEMLHLAVLHSRKLCVYSVSGTLGNVEHGNQCQMKLMYEHNLQRTACNMTYGSFGGVKGRDLICIQSMDGMLMVFEQESYAFGRFLPGFLLPGPLAYSSRTDSFLTVSSCQQVESYKYQVLAFATDADKRQETEQQKLGSGKRLVVDWTLNIGEQALDICIVSFNQSASSVFVLGERNFFCLKDNGQIRFMKKLDWSPSCFLPYCSVSEGTINTLIGNHNNMLHIYQDVTLKWATQLPHIPVAVRVGCLHDLKGVIVTLSDDGHLQCSYLGTDPSLFQAPNVQSRELNYDELDVEMKELQKIIKDVNKSQGVWPMTEREDDLNVSVVVSPNFDSVSQATDVEVGTDLVPSVTVKVTLQNRVILQKAKLSVYVQPPLELTCDQFTFEFMTPDLTRTVSFSVYLKRSYTPSELEGNAVVSYSRPTDRNPDGIPRVIQCKFRLPLKLICLPGQPSKTASHKITIDTNKSPVSLLSLFPGFASQSDDDQVNVMGFHFLGGARITVLASKTSQRYRIQSEQFEDLWLITNELILRLQEYFEKQGVKDFACSFSGSIPLQEYFELIDHHFELRINGEKLEELLSERAVQFRAIQRRLLARFKDKTPAPLQHLDTLLDGTYKQVIALADAVEENQGNLFQSFTRLKSATHLVILLIALWQKLSADQVAILEAAFLPLQEDTQELGWEETVDAAISHLLKTCLSKSSKEQALNLNSQLNIPKDTSQLKKHITLLCDRLSKGGRLCLSTDAAAPQTMVMPGGCTTIPESDLEERSVEQDSTELFTNHRHLTAETPRPEVSPLQGVSE
partner: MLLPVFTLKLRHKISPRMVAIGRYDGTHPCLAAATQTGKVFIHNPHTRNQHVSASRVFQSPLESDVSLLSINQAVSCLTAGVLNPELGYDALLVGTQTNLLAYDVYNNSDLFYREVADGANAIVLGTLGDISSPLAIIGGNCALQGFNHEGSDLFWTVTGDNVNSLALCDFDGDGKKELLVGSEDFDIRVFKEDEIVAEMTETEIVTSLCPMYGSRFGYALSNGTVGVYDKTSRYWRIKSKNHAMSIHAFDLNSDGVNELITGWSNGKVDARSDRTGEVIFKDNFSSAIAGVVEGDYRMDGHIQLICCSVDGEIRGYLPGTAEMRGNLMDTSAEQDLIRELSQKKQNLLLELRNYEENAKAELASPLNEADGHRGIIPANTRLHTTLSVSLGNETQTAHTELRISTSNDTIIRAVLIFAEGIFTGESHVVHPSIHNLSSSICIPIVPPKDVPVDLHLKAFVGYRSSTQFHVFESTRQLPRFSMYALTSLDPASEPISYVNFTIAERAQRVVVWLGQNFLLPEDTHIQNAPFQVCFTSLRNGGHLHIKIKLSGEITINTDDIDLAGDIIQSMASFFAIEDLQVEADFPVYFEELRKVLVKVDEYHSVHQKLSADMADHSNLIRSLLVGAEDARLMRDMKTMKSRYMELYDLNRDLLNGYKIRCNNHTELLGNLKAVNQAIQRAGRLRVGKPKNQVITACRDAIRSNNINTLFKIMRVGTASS

Variants of: B1
Conditions: with bbs2_human BBS2, Q9BXC9
value type: effect of a mutation on the interaction

variant identifier: Y703K
effect of a mutation on the interaction: with no effect

variant identifier: L611E
effect of a mutation on the interaction: with no effect

variant identifier: F632A
effect of a mutation on the interaction: with no effect

variant identifier: K547A
effect of a mutation on the interaction: with no effect

variant identifier: I523A
effect of a mutation on the interaction: with no effect

variant identifier: H652E
effect of a mutation on the interaction: with no effect

variant identifier: K786A
effect of a mutation on the interaction: with no effect

variant identifier: K704E
effect of a mutation on the interaction: with no effect

# context switch: different variant, same effect of a mutation on the interaction
Record request: effect of a mutation on the interaction value, item `H869K` with no effect
